B1: ZBED3 (parent)
chain: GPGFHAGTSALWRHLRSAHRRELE

- Variants of: B1
- PROCEDURE DETAILS: protein stability index of a GFP-peptide fusion (GPS, HEK-293T) (PSI 1-6); higher = more stable;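 also: lentivirally expressed fusions sorted by FACS into six bins by GFP to DsRed ratio, PSI derived from sequencing read proportions per bin multiplied by bin number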
- TEST CONTEXT: c terminus: a fixed tail appended
MEASURED PARAMETER: protein stability index
Answers are plain numbers.

Your task in this section: give protein stability index for each listed record.
1. GPGFHAGTSALWRHLRSAHRRENE [L23N]
2. GPGFHWGTSALWRHLRSAHRRELE [A6W]
3. GPGFHAGTFALWRHLRSAHRRELE [S9F]
4. GPGHHAGTSALWRHLRSAHRRELE [F4H]
5. GPGFHAGTSALWRHLRSAHCRELE [R20C]
6. GPGFHAGTSALWRHYRSAHRRELE [L15Y]

Ans.
2.03
1.82
2.23
3.16
2.27
2.1

Your task in this section: give protein stability index for each listed record.
1. VPGFHAGTSALWRHLRSAHRRELE [G1V]
2. GPGFHAGTSALWRHLRSAHRRWLE [E22W]
3. GPGFHAGTSALWRHLRSQHRRELE [A18Q]

Ans.
1. 2.9
2. 2.25
3. 2.61

Your task in this section: give protein stability index for each listed record.
1. CPGFHAGTSALWRHLRSAHRRELE [G1C]
2. GPGFHAGASALWRHLRSAHRRELE [T8A]
3. GPGFHAGTLALWRHLRSAHRRELE [S9L]
4. GPGFHAGTSALHRHLRSAHRRELE [W12H]
5. GPGFHAGTSALWRHLRSAHRREPE [L23P]
6. GPGFHAGTSALWRHERSAHRRELE [L15E]

Ans.
1: 2.65; 2: 1.75; 3: 3.28; 4: 2.16; 5: 1.98; 6: 1.76

Your task in this section: give protein stability index for each listed record.
1. GPGFHACTSALWRHLRSAHRRELE [G7C]
2. GPGFHAGTSMLWRHLRSAHRRELE [A10M]
3. GPGFHAGTSALWRHLRSAWRRELE [H19W]
4. GPGFHAGTSALWRDLRSAHRRELE [H14D]
5. GPGFHAGTSALWRGLRSAHRRELE [H14G]
6. GPGFHAGTSALWRHLRSAHRRELQ [E24Q]
7. GPGFHAGTSALWRHLRSPHRRELE [A18P]

Ans.
1. 1.75
2. 2.02
3. 2.14
4. 2.13
5. 2.76
6. 2.51
7. 3.65
